testSystem: Monoamine transporters; Norepininephrine & dopamine (Rattus norvegicus) (UniProt P23977+Q9WTR4)
protocolDescription: Selectivity for rat DAT over rat NET
Type: protein assay
propertyMeasured: Selectivity ratio

O[C@@H]1CCN2CCCC[C@@H]2[C@H]1c1ccccc1    > 0.8

Query block: Using the record for O=C1CC[C@H](c2ccccc2)[C@H]2CCCCN12 , report its Selectivity ratio.
Result block: > 0.76

Query block: Cool, now CCN1CCCC[C@@H]1[C@H](C)c1ccccc1 (relative stereo)
Result block: > 0.66

---

testSystem: UniProt:P23977
propertyMeasured: Ki (nM)
The reply should contain only the number, in nM.

Example entries begin here.
O[C@@H]1CCN2CCCC[C@@H]2[C@H]1c1ccc(Cl)c(Cl)c1    35.7
O=C1CCN2CCCC[C@@H]2[C@H]1c1ccc(Cl)c(Cl)c1 (relative stereo)    14
CC[C@@H]1CCN2CCCC[C@@H]2[C@H]1c1ccccc1    27.6
CC[C@@H]1CCN2CCCC[C@@H]2[C@H]1c1ccc(Cl)c(Cl)c1    3.44
CO[C@H]1CCN2CCCC[C@@H]2[C@H]1c1ccccc1    10.8

Query block: Using the record for CC[C@@]1(O)CCN2CCCC[C@@H]2[C@H]1c1ccccc1 , report its Ki.
Result block: 175

Query block: Cool, now Clc1ccc([C@@H]2CCCN3CCCC[C@H]23)cc1Cl (relative stereo)
Result block: 34.6

Query block: Cool, now c1ccc(C2CCCNC2)cc1 (stereo not given)
Result block: 4560

Query block: Cool, now OC[C@H](c1ccc(Cl)c(Cl)c1)[C@H]1CCCCN1 (relative stereo)
Result block: 3.91

Query block: Cool, now COC(=O)[C@@H](c1ccc(Cl)c(Cl)c1)[C@H]1CCCCN1 (relative stereo)
Result block: 363

Query block: Cool, now C[C@H]1C[C@H](c2ccccc2)[C@H]2CCCCN2C1
Result block: 178

Query block: Cool, now CC[C@H]1CCN2CCCC[C@@H]2[C@H]1c1ccc(Cl)c(Cl)c1
Result block: 4.12

Query block: Cool, now Clc1ccc([C@H]2CCCN3CCCC[C@H]23)cc1Cl (relative stereo)
Result block: 3.39

Query block: Cool, now CCN1CCCC[C@@H]1[C@H](CO)c1ccccc1 (relative stereo)
Result block: 2100

Query block: Cool, now O[C@H]1CCN2CCCC[C@@H]2[C@H]1c1ccccc1
Result block: 108

Query block: Cool, now C[C@@H]1C[C@H](c2ccccc2)[C@H]2CCCCN2C1
Result block: 119
